Source listed as PubChem BioAssay (NCI).

- test.details: NCI Yeast Anticancer Drug Screen. Data for the CLN2oe strain (AID 163);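 further: 0% = growth of vehicle-only control cultures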
- study.conditions: S. cerevisiae CLN2oe strain, at 3.7 µM, hits give high values
The panel holds about 79,000 compounds, 15% with a hit somewhere; the sample as a whole holds those more often.
metric.name: growth inhibition (%)
The reply should contain only the number, in %.

Data request: Given O=C(Nc1cccs1)c1ccccc1 , state its recorded growth inhibition.
Data returned: -1

Data request: Given Clc1nc(Cl)nc(Nc2cccc3ccccc23)n1 , state its recorded growth inhibition.
Data returned: 31

Data request: Given CCC(C)(C)c1ccc(Oc2ccccc2)c(N)c1 , state its recorded growth inhibition.
Data returned: -2

Data request: Given CN1CCN(C(=O)c2cccc3cccc(C(=O)O)c23)CC1 , state its recorded growth inhibition.
Data returned: 15

Data request: Given CCN(CC)CCNc1ccc(C)c2sc3ccc(O)cc3c(=O)c12 , state its recorded growth inhibition.
Data returned: 33

Data request: Given COC(=O)c1cnc(Cl)c([N+](=O)[O-])c1 , state its recorded growth inhibition.
Data returned: 5

Data request: Given CCN1CCC(O)(c2ccc(Oc3ccc(Cl)cc3)cc2)C(C(=O)c2ccc(Oc3ccc(Cl)cc3)cc2)C1 (stereo not given) , state its recorded growth inhibition.
Data returned: 44

Data request: Given O=[N+]([O-])c1ccc(/C=C\c2ccc3c(c2)OCO3)c([N+](=O)[O-])c1 , state its recorded growth inhibition.
Data returned: -3

Data request: Given O=C1C(=O)c2cccc([N+](=O)[O-])c2-c2ccccc21 , state its recorded growth inhibition.
Data returned: -5

Data request: Given O=C1c2cccc3cccc(c23)C(=O)N1O , state its recorded growth inhibition.
Data returned: 8

Data request: Given Fc1ccc(Nc2ccc3ccccc3c2)cc1 , state its recorded growth inhibition.
Data returned: -2

Data request: Given CCN1CCC(O)(c2ccc(Oc3ccc(C)cc3)cc2)C(C(=O)c2ccc(Oc3ccc(C)cc3)cc2)C1 (stereo not given) , state its recorded growth inhibition.
Data returned: 22

Data request: Given O=C(O)/C=C\C(=O)Nc1ccc2c(c1)Cc1cc(Cl)ccc1-2 , state its recorded growth inhibition.
Data returned: -7

Data request: Given O=[N+]([O-])c1cc(Cl)ccc1S(=O)(=O)c1ccc(Cl)cc1[N+](=O)[O-] , state its recorded growth inhibition.
Data returned: -4

Data request: Given Nc1cc2c(cc1N)-c1ccccc1C2=O , state its recorded growth inhibition.
Data returned: 0

Data request: Given CCN(CC)C(=S)SC(=S)N(CC)CC , state its recorded growth inhibition.
Data returned: -8

Data request: Given O=C1SS(=O)c2ccccc21 (stereo not given) , state its recorded growth inhibition.
Data returned: 13

Data request: Given COc1ccc(C(OCC2OC(n3cnc4c(=O)n(Cc5ccccc5[N+](=O)[O-])nnc43)C(O)C2O)(c2ccccc2)c2ccc(OC)cc2)cc1 (stereo not given) , state its recorded growth inhibition.
Data returned: -4

Data request: Given c1c[nH]c(CN2CCN(Cc3ncc[nH]3)CC2)n1 , state its recorded growth inhibition.
Data returned: 12

Data request: Given CCCCCc1c(CCCC)c(=O)[nH]c2cc(CNCC(OC)OC)ccc12 , state its recorded growth inhibition.
Data returned: 11

Data request: Given CCCCCCCCCCCNC=O , state its recorded growth inhibition.
Data returned: -14

Data request: Given CCN(CC)C(=S)N/N=C(\C)c1ccccc1O , state its recorded growth inhibition.
Data returned: -5

Data request: Given COc1ccc(N=c2cc(-c3ccccc3)oc3ccccc23)cc1 , state its recorded growth inhibition.
Data returned: -1

Data request: Given O=C1NC(c2cccc(OCc3ccccc3)c2)Nc2ccccc21 (stereo not given) , state its recorded growth inhibition.
Data returned: -9

Data request: Given O=C(Nc1ccc(Cl)cc1)c1cc2cc(N=Nc3ccccc3Cl)ccc2oc1=O , state its recorded growth inhibition.
Data returned: 13
